# experimental target: CAVA (Homo sapiens, UniProt P35218)
# Construct: made in house; host or cells: E. coli
# Sequence (P35218 39-305): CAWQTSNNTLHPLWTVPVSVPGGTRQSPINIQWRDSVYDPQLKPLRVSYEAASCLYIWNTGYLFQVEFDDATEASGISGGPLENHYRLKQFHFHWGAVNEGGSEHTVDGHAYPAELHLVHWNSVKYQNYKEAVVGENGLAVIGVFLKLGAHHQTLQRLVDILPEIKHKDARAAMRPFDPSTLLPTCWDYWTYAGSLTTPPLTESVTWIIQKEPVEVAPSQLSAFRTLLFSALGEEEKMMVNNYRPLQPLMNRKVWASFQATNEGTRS
# test protocol: Fluorescent thermal shift assay (FTSA), CAVA
# Format: binding
# conditions used: FTSA, pH 7.0, 37 °C; read-out: Observed Dissociation Constant (Kd_obs), CAVA
Kd listing for selected compounds.
parameter: Kd (µM)

• CNC(=S)NNC(=O)CC(CNc1ccc(S(N)(=O)=O)cc1)C(=O)NNC(=S)NC (centres unmarked) [Compound 22a] = 33
• NS(=O)(=O)c1ccc(NCC(CC(=O)NN=Cc2ccc(C(=O)O)cc2)C(=O)NN=Cc2ccc(C(=O)O)cc2)cc1 (centres unmarked) [Compound 18a] = 20
• Cc1ccc(C)n1NC(=O)CC(CNc1ccc(S(N)(=O)=O)cc1Cl)C(=O)Nn1c(C)ccc1C (centres unmarked) [Compound 19b] = 20
• NS(=O)(=O)c1ccc(NCC(Cc2n[nH]c(=S)n2-c2ccccc2)c2n[nH]c(=S)n2-c2ccccc2)c(Cl)c1 (centres unmarked) [Compound 25b] = 38

----------
# experimental target: CAIII (Homo sapiens)
# Sequence (P07451 whole entry): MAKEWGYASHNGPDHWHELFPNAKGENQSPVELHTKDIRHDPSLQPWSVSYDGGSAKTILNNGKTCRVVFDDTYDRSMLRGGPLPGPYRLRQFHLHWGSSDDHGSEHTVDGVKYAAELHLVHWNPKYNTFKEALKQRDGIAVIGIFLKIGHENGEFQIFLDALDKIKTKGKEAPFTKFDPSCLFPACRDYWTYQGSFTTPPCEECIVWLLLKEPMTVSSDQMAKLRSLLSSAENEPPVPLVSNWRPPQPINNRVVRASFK
parameter: Kd

- NS(=O)(=O)c1ccc(NCC(CC(=O)NN=Cc2ccc(C(=O)O)cc2)C(=O)NN=Cc2ccc(C(=O)O)cc2)cc1 (stereo not shown) [Compound 18a]: ≥ 200 µM
- CCOC(=O)c1sc(N(CCC(=O)NN)c2ccc(S(N)(=O)=O)cc2)nc1C: ≥ 200 µM
- CCOC(=O)c1sc(N(CCC(=O)OC)c2ccc(S(N)(=O)=O)cc2)nc1C: ≥ 200 µM
- NS(=O)(=O)c1ccc(NCC(Cc2n[nH]c(=S)n2-c2ccccc2)c2n[nH]c(=S)n2-c2ccccc2)c(Cl)c1 (stereo not shown) [Compound 25b]: 5 µM

----------
# experimental target: CAXIII (Homo sapiens, UniProt Q8N1Q1);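 also: recombinant human CAXIII melting temperature tracked by ANS fluorescence in thermal shift assay, Tm fitted against ligand concentration, intrinsic value corrects Kd for deprotonated sulfonamide and Zn-bound water fractions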
# Sequence (Q8N1Q1 whole entry): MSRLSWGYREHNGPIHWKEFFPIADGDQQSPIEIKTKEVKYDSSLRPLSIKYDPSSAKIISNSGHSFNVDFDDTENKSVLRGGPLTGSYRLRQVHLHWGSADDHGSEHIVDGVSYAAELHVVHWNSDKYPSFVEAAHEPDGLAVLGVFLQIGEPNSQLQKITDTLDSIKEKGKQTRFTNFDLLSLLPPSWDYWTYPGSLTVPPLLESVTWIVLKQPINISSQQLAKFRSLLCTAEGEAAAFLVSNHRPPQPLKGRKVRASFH
# test protocol: biochemical
# conditions used: Observed Dissociation Constant (Kd_obs), FTSA, pH 7.0, 37 °C
parameter: Kd

• Cc1cc(C)n(C(=O)CC(CNc2ccc(S(N)(=O)=O)cc2Cl)C(=O)n2nc(C)cc2C)n1 (stereo not shown) = 2900 nM
• NS(=O)(=O)c1ccc(NCC(CC(=O)NN=Cc2ccccc2[N+](=O)[O-])C(=O)NN=Cc2ccccc2[N+](=O)[O-])cc1 (stereo not shown) [Compound 15a] = 6700 nM
• CCOC(=O)c1sc(N(CCC(=O)NN=Cc2ccccc2)c2ccc(S(N)(=O)=O)cc2)nc1C = 220 nM
• Cn1c(CC(CNc2ccc(S(N)(=O)=O)cc2)c2n[nH]c(=S)n2C)n[nH]c1=S (stereo not shown) [Compound 24a] = 19000 nM
• CCOC(=O)c1sc(N(CCC(=O)NN)c2ccc(S(N)(=O)=O)cc2)nc1C = 830 nM
• NS(=O)(=O)c1ccc(N(CCC(=O)O)c2nc(-c3ccc(Cl)cc3)c(Cl)s2)cc1 = 23 to 40 nM
• NS(=O)(=O)c1ccc(NCC(Cc2n[nH]c(=S)n2-c2ccccc2)c2n[nH]c(=S)n2-c2ccccc2)cc1 (stereo not shown) [Compound 25a] = 25000 nM

----------
The reader will find reported Kd values listed item by item below.
# experimental target: CAI (Homo sapiens, UniProt P00915)
# Construct: made in house; host or cells: E. coli
# Sequence (P00915 whole entry): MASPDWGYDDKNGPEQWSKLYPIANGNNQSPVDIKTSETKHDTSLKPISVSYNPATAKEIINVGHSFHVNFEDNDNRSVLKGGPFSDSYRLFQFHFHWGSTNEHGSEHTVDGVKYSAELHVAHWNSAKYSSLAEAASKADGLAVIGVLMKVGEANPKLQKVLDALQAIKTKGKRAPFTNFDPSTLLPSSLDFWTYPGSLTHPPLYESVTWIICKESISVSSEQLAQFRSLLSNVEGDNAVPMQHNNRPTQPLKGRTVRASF
# test protocol: biochemical
# Format: binding
# conditions used: FTSA, pH 7.0, 37 °C; read-out: Observed Dissociation Constant (Kd_obs), CAI
parameter: Kd (µM)

* NS(=O)(=O)c1ccc(NCC(Cc2n[nH]c(=S)n2-c2ccccc2)c2n[nH]c(=S)n2-c2ccccc2)c(Cl)c1 (centres unmarked) [Compound 25b] | 0.17
* Cn1c(CC(CNc2ccc(S(N)(=O)=O)cc2)c2n[nH]c(=S)n2C)n[nH]c1=S (centres unmarked) [Compound 24a] | 43
* NS(=O)(=O)c1ccc(NCC(CC(=O)NN=Cc2ccccc2Cl)C(=O)NN=Cc2ccccc2Cl)c(Cl)c1 (centres unmarked) [Compound 10b] | 1.7
* COc1ccc(C=NNC(=O)CC(CNc2ccc(S(N)(=O)=O)cc2)C(=O)NN=Cc2ccc(OC)cc2)cc1 (centres unmarked) [Compound 14a] | 32
* NS(=O)(=O)c1ccc(NCC(CC(=O)NN=Cc2ccc([N+](=O)[O-])cc2)C(=O)NN=Cc2ccc([N+](=O)[O-])cc2)cc1 (centres unmarked) [Compound 17a] | 36
* CCOC(=O)c1sc(N(CCC(=O)O)c2ccc(S(N)(=O)=O)cc2)nc1C [Compound 31] | 2
* NS(=O)(=O)c1ccc(NCC(CC(=O)NN=Cc2cccc([N+](=O)[O-])c2)C(=O)NN=Cc2cccc([N+](=O)[O-])c2)cc1 (centres unmarked) [Compound 16a] | 20
* NS(=O)(=O)c1ccc(NCC(CC(=O)NN=Cc2cccc(Cl)c2)C(=O)NN=Cc2cccc(Cl)c2)c(Cl)c1 (centres unmarked) [Compound 11b] | 2.5
* NS(=O)(=O)c1ccc(NCC(CC(=O)NN=Cc2ccc(O)cc2)C(=O)NN=Cc2ccc(O)cc2)cc1 (centres unmarked) [Compound 9a] | 5.9
* CNC(=S)NNC(=O)CC(CNc1ccc(S(N)(=O)=O)cc1Cl)C(=O)NNC(=S)NC (centres unmarked) [Compound 22b] | 3.3
* NS(=O)(=O)c1ccc(NCC(CC(=O)NN=Cc2ccccc2)C(=O)NN=Cc2ccccc2)c(Cl)c1 (centres unmarked) [Compound 6b] | 1.4
* NS(=O)(=O)c1ccc(N(CCC(=O)O)c2nc(-c3ccc(Cl)cc3)c(Cl)s2)cc1 [Compound 36] | 0.02
* CCOC(=O)c1sc(N(CCC(=O)OC)c2ccc(S(N)(=O)=O)cc2)nc1C [Compound 32] | 0.83
* NS(=O)(=O)c1ccc(NCC(CC(=O)NN=Cc2ccc(F)cc2)C(=O)NN=Cc2ccc(F)cc2)cc1 (centres unmarked) [Compound 13a] | 22
* NNC(=O)CC(CNc1ccc(S(N)(=O)=O)cc1Cl)C(=O)NN (centres unmarked) [Compound 2b] | 6.7
* NS(=O)(=O)c1ccc(NCC(CC(=O)NN=Cc2cccc(Cl)c2)C(=O)NN=Cc2cccc(Cl)c2)cc1 (centres unmarked) [Compound 11a] | 20
* Cc1csc(N(CCC(=O)NN)c2ccc(S(N)(=O)=O)cc2)n1 [Compound 29] | 0.15
* Cc1ccc(C)n1NC(=O)CC(CNc1ccc(S(N)(=O)=O)cc1)C(=O)Nn1c(C)ccc1C (centres unmarked) [Compound 19a] | 10
* CC(=NNC(=O)CC(CNc1ccc(S(N)(=O)=O)cc1Cl)C(=O)NN=C(C)c1ccccc1)c1ccccc1 (centres unmarked) [Compound 5b] | 4
* NS(=O)(=O)c1ccc(NCC(CC(=O)NN=Cc2cccc(O)c2)C(=O)NN=Cc2cccc(O)c2)cc1 (centres unmarked) [Compound 8a] | 10
* CC(C)=NNC(=O)CC(CNc1ccc(S(N)(=O)=O)cc1Cl)C(=O)NN=C(C)C (centres unmarked) [Compound 3b] | 10
* NS(=O)(=O)c1ccc(NCC(Cc2n[nH]c(=S)n2-c2ccccc2)c2n[nH]c(=S)n2-c2ccccc2)cc1 (centres unmarked) [Compound 25a] | 100
* CCOC(=O)c1sc(N(CCC(=O)NN=Cc2ccccc2)c2ccc(S(N)(=O)=O)cc2)nc1C [Compound 34] | 0.67
* NS(=O)(=O)c1ccc(NCC(CC(=O)NN=Cc2ccccc2O)C(=O)NN=Cc2ccccc2O)cc1 (centres unmarked) [Compound 7a] | 6.7
* NS(=O)(=O)c1ccc(NCC(CC(=O)NNC(=S)Nc2ccccc2)C(=O)NNC(=S)Nc2ccccc2)cc1 (centres unmarked) [Compound 23a] | 4
* CCC(C)=NN1C(=O)CC(CNc2ccc(S(N)(=O)=O)cc2Cl)C1=O (centres unmarked) [Compound 4b] | 2.9
* NS(=O)(=O)c1ccc(NCC(CC(=O)NN=Cc2ccc(Cl)cc2)C(=O)NN=Cc2ccc(Cl)cc2)c(Cl)c1 (centres unmarked) [Compound 12b] | 6.7
* NS(=O)(=O)c1ccc(NCC(CC(=O)NN=Cc2ccc(O)cc2)C(=O)NN=Cc2ccc(O)cc2)c(Cl)c1 (centres unmarked) [Compound 9b] | 0.67
* CCOC(=O)c1sc(N(CCC(=O)NN)c2ccc(S(N)(=O)=O)cc2)nc1C [Compound 33] | 3.1
* NS(=O)(=O)c1ccc(NCC(CC(=O)NN=Cc2ccc(Cl)cc2)C(=O)NN=Cc2ccc(Cl)cc2)cc1 (centres unmarked) [Compound 12a] | 36
* Cc1csc(N(CCC(=O)O)c2ccc(S(N)(=O)=O)cc2)n1 [Compound 27] | 0.067
* CC(C)=NNC(=O)CC(CNc1ccc(S(N)(=O)=O)cc1)C(=O)NN=C(C)C (centres unmarked) [Compound 3a] | 170

Data provenance: paper PMC9033141
